# Tested on: Anandamide Membrane Transporter (AMT)
# methodNotes: Anandamide uptake by RBL-2H3 cells
# Assay type: cell-based
# reportedConditions: anandamide uptake, read-out: AMT IC50
propertyName: IC50

CCCCCCCCCCCCCCCc1cccc(OCCCCCC(=O)NCCO)c1 [Compound 15] :: > 25 µM
CCCCCc1cc(O)cc(OCCCCCCCCCCC(=O)NCCO)c1 [Compound 24] :: 25 µM

Req: // returns reported IC50 for input CCCCCCc1ccc(O)cc1OCCCCCCCCCCC(=O)Nc1ccc(O)cc1 [Compound 53]
Resp: > 25 µM

Req: Try CCCCCCCCCCCCCCCc1cccc(OCCCCCC(=O)Nc2ccc(O)cc2)c1 [Compound 17] next.
Resp: > 25 µM

Req: Can you handle CCCCCCc1ccc(O)cc1OCCCCCCCCCCC(=O)NCCO [Compound 51] next?
Resp: > 25 µM

Req: Input CCCCCc1cc(O)cc(OCCCCCCCCCCC(=O)NC2CC2)c1 [Compound 25]
Resp: 17 µM

Req: // next record CCCCCCc1ccc(OCCCCCCCCCCC(=O)Nc2ccc(O)cc2)cc1O [Compound 44]
Resp: > 25 µM

Req: CCCCCCc1ccc(O)cc1OCCCCCCCCCCC(=O)NC1CC1 [Compound 52] , same question.
Resp: 13 µM

Req: Same read-out for CCCCCCc1ccc(OCCCCCCCCCCC(=O)NC2CC2)cc1O [Compound 43] ?
Resp: > 25 µM

Taken from patent US20090043129A1.
